# measured on: T1, C5a receptor (C5aR) expressed on the surface of human PMNs (human, UniProt P21730 1-350)
# T1 sequence (looked up): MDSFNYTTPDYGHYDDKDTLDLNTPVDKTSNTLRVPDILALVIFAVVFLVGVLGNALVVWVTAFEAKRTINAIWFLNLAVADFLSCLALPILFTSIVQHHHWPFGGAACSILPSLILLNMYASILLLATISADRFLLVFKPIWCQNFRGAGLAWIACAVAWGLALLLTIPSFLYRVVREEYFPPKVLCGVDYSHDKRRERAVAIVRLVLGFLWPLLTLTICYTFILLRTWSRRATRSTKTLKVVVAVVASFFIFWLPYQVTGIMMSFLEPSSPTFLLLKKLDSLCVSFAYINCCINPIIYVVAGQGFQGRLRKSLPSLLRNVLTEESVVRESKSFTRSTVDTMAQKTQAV
# assay explanation: cell-based or functional assay
Where no end group is shown, it is not given here. [ ]: non-standard residue; d: D form.
Give pD2, MPO release from human PMNs for every item shown.

Below: 3 binders and their reported pD2, MPO release from human PMNs.
binder | pD2, MPO release from human PMNs
IPQSLDSWWTSLRRYSFKPMPL[dA]RG (Synthetic peptide) | 5.59 -log EC50 (M)
IPQSLDSWWTSLRVRRYSFKPMPL[dA]R (Synthetic peptide; also called RVRR-containing construct) [IPQSLDSWWTSLRVRRYSFKPMPLaR (RVRR furin-sensitive-linked C5a-active construct)] | 5.61 -log EC50 (M)
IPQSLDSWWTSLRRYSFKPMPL[dA]R (Synthetic peptide; also called RR-containing construct) [IPQSLDSWWTSLRRYSFKPMPLaR (double-Arg-linked C5a-active construct)] | 6.27 -log EC50 (M)

Proceed to the following item.
Per the record, IPQSLDSWWTSLYSFKPMPL[dA]R (Synthetic peptide; also called C5a-active construct without linker) [IPQSLDSWWTSLYSFKPMPLaR (HBsAg CTL epitope attached directly to N-terminus of the C5a agonist)] has pD2, MPO release from human PMNs of 5.8 -log EC50 (M)
